Catalogue of IC50 values
- Test system: T. cruzi
- assay-method-text: T. cruzi inhibition assay (beta-galactosidase T. cruzi co-cultured with NIH/3T3 host cells)
- Type: cell-based
- assay-conditions: Trypanosoma cruzi, NIH3T3; Table 2
readout-name: IC50 (µM)

INSERT INTO results (compound, target_entity, readout_name, comparison_sign, recorded_number) VALUES
  ('C[C@@H](CO)N1CC[C@H](CN(C)Cc2cccc(Cl)c2)Oc2c(NC(=O)c3ccncc3)cccc2C1=O [Compound 22]', 'T. cruzi', 'IC50', '<', 0.0026),
  ('C[C@@H]1CN([C@H](C)CO)C(=O)c2cccc(NC(=O)c3ccncc3)c2O[C@H]1CN(C)Cc1ccc2c(c1)OCO2 [Compound 27]', 'T. cruzi', 'IC50', '=', 0.00148),
  ('C[C@@H]1CN([C@@H](C)CO)C(=O)c2cccc(NC(=O)c3cnccn3)c2O[C@H]1CN(C)Cc1ccc(Oc2ccccc2)cc1 [Compound 38]', 'T. cruzi', 'IC50', '=', 1),
  ('C[C@H]1CN([C@@H](C)CO)C(=O)c2cccc(NC(=O)c3ccncc3)c2O[C@@H]1CN(C)Cc1ccc(Oc2ccccc2)cc1 [Compound 40]', 'T. cruzi', 'IC50', '<', 0.0026),
  ('C[C@@H]1CN([C@@H](C)CO)C(=O)c2cc(-c3ccncc3)cnc2O[C@H]1CN(C)Cc1ccc(Oc2ccccc2)cc1 [Compound 31]', 'T. cruzi', 'IC50', '=', 1.28),
  ('C[C@@H]1CN([C@@H](C)CO)C(=O)c2cccc(NC(=O)c3ccncc3)c2O[C@H]1CN(C)Cc1ccccc1Cl [Compound 26]', 'T. cruzi', 'IC50', '=', 0.0039);

// data source = patent US20140045860A1
